In this section, each of the compounds is paired with its reported log10(EC50).
testedTarget: Human M4 (Homo sapiens, UniProt P08173)
Sequence (P08173 1-479): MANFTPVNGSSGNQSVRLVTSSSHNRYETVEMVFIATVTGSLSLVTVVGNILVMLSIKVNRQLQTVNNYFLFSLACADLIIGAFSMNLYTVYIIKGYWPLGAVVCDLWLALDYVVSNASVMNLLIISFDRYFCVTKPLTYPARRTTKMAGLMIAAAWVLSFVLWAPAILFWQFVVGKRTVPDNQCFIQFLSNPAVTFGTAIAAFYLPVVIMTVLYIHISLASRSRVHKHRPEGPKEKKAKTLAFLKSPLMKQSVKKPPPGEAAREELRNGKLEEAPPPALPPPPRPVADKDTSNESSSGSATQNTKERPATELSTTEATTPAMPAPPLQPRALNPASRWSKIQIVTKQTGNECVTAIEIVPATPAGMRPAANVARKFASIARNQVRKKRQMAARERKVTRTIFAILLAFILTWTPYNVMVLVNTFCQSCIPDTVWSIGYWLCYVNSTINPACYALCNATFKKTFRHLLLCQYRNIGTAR
testName: mAChR M4 cell-based functional assay (calcium flux, potentiation of EC20 acetylcholine response)
Quick note: numbers are log10 of EC50, with µM as the unit.

Cc1cc(C)c2c(n1)sc1c(C3CCN(C(=O)C4CCCO4)CC3)ncnc12 (centres unmarked); 0.00
Cc1nnc2sc3c(C4CCN(C(=O)C5CC5)CC4)ncnc3c2c1C; -0.39
Cc1cc(C)c2c(n1)sc1c(C3CCN(C4COC4)CC3)ncnc12; 0.20
Cc1cc(C)c2c(n1)sc1c(C3CCN(C(=O)C4CC4)CC3)ncnc12; -0.21

# context switch: different compound, same log10(EC50)
Sample "Cc1cc(C)c2c(n1)sc1c(C3CCOCC3)ncnc12" — what was its log10(EC50)?
-0.82
